Target: T1, FTM-NN protein (membrane anchorless form of the Long fusion protein, 70 kDa) (human respiratory syncytial virus, …, UniProt P12568 26-524)
T1 construct: domain: membrane anchorless form of the fusion protein
Assay: SPR (Biacore), FTM-NN immobilised
Item-by-item account of kon

binder	kon, M⁻¹ s⁻¹
RSVPMP7B2 (VHH) VHH: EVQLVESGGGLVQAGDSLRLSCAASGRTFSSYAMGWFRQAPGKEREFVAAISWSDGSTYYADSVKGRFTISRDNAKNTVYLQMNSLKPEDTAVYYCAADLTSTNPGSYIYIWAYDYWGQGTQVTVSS	570000
RSVNC23 (VHH) VHH: EVQLVESGGGLVQPGGSLRLSCAASGRTFSSIAMGWFRQAPGKEREFVAAISWSRGRTFYADSVKGRFIISRDDAANTAYLQMNSLKPEDTAVYYCAVDTASWNSGSFIYDWAYDHWGQGTQVTVSS	800000
LG191D3 (VHH) VHH: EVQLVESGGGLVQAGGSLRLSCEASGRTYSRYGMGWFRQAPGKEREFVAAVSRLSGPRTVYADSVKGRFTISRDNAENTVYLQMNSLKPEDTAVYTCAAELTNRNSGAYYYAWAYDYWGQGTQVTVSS	1.5e+06
RSVPMP15H8 (VHH) VHH: EVQLVESGGGLVQAGGSLRLSCAASGRSFSNYVLGWFRQAPGKEREFVAAISFRGDSAIGAPSVEGRFTISRDNAKNTGYLQMNSLVPDDTAVYYCGAGTPLNPGAYIYDWSYDYWGRGTQVTVSS	1.2e+06
RSVNC41 (VHH) VHH: EVQLVESGGGLVQAGGSLSISCAASGGSLSNYVLGWFRQAPGKEREFVAAINWRGDITIGPPNVEGRFTISRDNAKNTGYLQMNSLAPDDTAVYYCGAGTPLNPGAYIYDWSYDYWGRGTQVTVSS	820000
RSVPMP15B3 (VHH) VHH: EVQLVESGGGLVQPGGSLRLSCAASGLTLDYYALGWFRQAPGKEREGVSCISSSDHSTTYTDSVKGRFTISWDNAKNTLYLQMNSLKPGDTAVYYCAADPALGCYSGSYYPRYDYWGQGTQVTVSS	410000
LG191E4 (VHH) VHH: EVQLVESGGGLVQAGGSLRLSCAASGPTFSADTMGWFRQAPGKEREFVATIPWSGGIAYYSDSVKGRFTMSRDNAKNTVDLQMNSLKPEDTALYYCAGSSRIYIYSDSLSERSYDYWGQGTQVTVSS	570000

Values were extracted from patent US20200123233A1.
